- System: HCVpp GT-1b (pseudotyped HCV GT1b particles, E1 and E2 envelope proteins of GT1b Con1 strain)
- PROTOCOL DESCRIPTION: microbe, parasite or virus in culture
- Format: cell-based
- ASSAY CONDITIONS: Hepatitis C virus, 72 h, read-out: HCVpp GT-1b (EC50, μM)

{"columns": ["SAMPLE SMILES", "UNITS", "EC50"],
 "data": [
  ["COCc1n[nH]c(Nc2cc(Cl)cc(Cl)c2)n1", "µM", 24.2],
  ["Clc1cc(Cl)cc(Nc2n[nH]c(-c3ccccc3)n2)c1", "µM", 27.5],
  ["Fc1n[nH]c(Nc2cc(Cl)cc(Cl)c2)n1", "µM", 30.1],
  ["Fc1c(Cl)cc(Nc2nc[nH]n2)cc1Cl", "µM", 3.77],
  ["Clc1cc(Nc2ncn[nH]2)cc(Cl)c1Br", "µM", 2.52],
  ["Cc1nc(Nc2cc(Cl)cc(Cl)c2)n[nH]1", "µM", 6.25]
]}

Recorded values, source patent US20160002180A1.
